# EXPERIMENTAL SYSTEM: Myeloblastin (Homo sapiens) (UniProt P24158)
# Sequence (whole entry): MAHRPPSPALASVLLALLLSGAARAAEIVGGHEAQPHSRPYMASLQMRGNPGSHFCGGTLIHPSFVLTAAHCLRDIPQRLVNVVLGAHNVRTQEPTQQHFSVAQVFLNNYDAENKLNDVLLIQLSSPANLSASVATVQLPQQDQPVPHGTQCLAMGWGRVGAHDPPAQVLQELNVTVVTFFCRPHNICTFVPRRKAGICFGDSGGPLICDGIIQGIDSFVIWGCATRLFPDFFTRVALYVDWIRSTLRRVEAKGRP
# TEST DESCRIPTION: Inhibition of human neutrophil proteinase 3
Active and inactive are the calls of the source. The rule behind the calls is not given here.
METRIC: inhibition

Example cases with answers are listed next.
# COMPOUND, EXPERIMENTAL SYSTEM, inhibition
data = [
    ("CCN1CN(Cc2cccc(NC(=O)c3ccccc3)c2)S(=O)(=O)N1CC", "Myeloblastin (Homo sapiens) (UniProt P24158)", "inactive"),
    ("CCN1CN(Cc2cccc(NC(=O)c3cccc(OC)c3)c2)S(=O)(=O)N1CC", "Myeloblastin (Homo sapiens) (UniProt P24158)", "inactive"),
    ("CCN1CN(Cc2cn(CC(=O)c3cccs3)nn2)S(=O)(=O)N1CC", "Myeloblastin (Homo sapiens) (UniProt P24158)", "inactive"),
    ("CCN1C(=O)N(C(Cc2ccccc2)C(=O)Nc2ccccc2NC(=O)OCC(C)C)S(=O)(=O)N1CC (stereo not drawn)", "Myeloblastin (Homo sapiens) (UniProt P24158)", "inactive"),
    ("CCN1CN(Cc2cccc(NC(=O)c3cccc(Oc4ccccc4)c3)c2)S(=O)(=O)N1CC", "Myeloblastin (Homo sapiens) (UniProt P24158)", "inactive"),
    ("CCN1CN(Cc2cccc(NC(=O)NCCc3ccccc3)c2)S(=O)(=O)N1CC", "Myeloblastin (Homo sapiens) (UniProt P24158)", "inactive"),
    ("CCN1CN(Cc2cccc(NC(=O)CCOC)c2)S(=O)(=O)N1CC", "Myeloblastin (Homo sapiens) (UniProt P24158)", "inactive"),
]

Turning now to a further record.
Incoming: Answer briefly: inhibition recorded on Myeloblastin (Homo sapiens) (UniProt P24158) for CCN1CN(Cc2cn(CC(=O)c3ccccc3F)nn2)S(=O)(=O)N1CC
Outgoing: inactive
